Target: Corticotropin-releasing factor receptor 2/Corticotropin-releasing factor-binding protein (Homo sapiens, UniProt P24387+Q13324)
Sequence (Q13324 whole entry): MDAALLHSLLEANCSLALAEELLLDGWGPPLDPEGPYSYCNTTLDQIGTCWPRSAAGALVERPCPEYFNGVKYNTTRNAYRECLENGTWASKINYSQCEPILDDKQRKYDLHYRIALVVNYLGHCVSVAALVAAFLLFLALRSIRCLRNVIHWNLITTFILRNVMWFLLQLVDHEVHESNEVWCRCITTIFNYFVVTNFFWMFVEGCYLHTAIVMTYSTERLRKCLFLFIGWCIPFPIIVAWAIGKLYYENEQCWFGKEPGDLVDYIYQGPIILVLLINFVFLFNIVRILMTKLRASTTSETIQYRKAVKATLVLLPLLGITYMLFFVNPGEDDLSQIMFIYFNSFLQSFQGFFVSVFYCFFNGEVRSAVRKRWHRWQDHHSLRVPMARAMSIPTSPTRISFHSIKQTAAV
Sequence (P24387 whole entry): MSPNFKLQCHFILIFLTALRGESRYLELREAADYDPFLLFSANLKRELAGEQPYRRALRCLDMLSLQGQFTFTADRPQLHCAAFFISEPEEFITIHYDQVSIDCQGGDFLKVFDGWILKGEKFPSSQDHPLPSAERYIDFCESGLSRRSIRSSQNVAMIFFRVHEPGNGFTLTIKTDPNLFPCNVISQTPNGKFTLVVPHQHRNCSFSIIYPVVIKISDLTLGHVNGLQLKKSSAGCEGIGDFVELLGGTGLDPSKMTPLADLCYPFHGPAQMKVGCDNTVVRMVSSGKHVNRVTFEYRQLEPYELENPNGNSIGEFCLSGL
Experiment: activators of CRF receptor 2 with binding protein – uHTS hits, confirmation (AID 602473)
Type: functional
Conditions: read-out: EC50_Mean
Active and inactive are the calls of the source. Cut-off read from the data, not from the text of the source: actives have a measured EC50 and inactives only a lower limit.
# output must be one of 1 for active, -1 for inactive

Look over these answered cases.
{"MOLECULE": "COc1ccc2nc(N3CCC(O)CC3)c(C#N)cc2c1", "DISCRETE LABEL": -1}
{"MOLECULE": "COc1ccc(Cl)cc1NC(=O)C(C)NC(c1ccccc1)c1ccccc1 (stereo not given)", "DISCRETE LABEL": -1}

## Input Which outcome was entered for the molecule Cc1c(O)cc2c(c1O)C(=O)CC(c1ccccc1)O2 (stereo not given) [STROBOPININ] in this test?
## Output 1

## Input Tell me the recorded outcome of this test for CCOC(=O)C(NCc1ccccn1)(NC(=O)c1cccnc1)C(F)(F)F (stereo not given) .
## Output -1

## Input Just curious, what result did `Cc1ccccc1N1C(=O)NC(=O)/C(=C\c2ccc3c(c2)CCCN3Cc2ccccc2)C1=O` get here?
## Output 1

----------
Target: Zinc finger protein mex-5 (Caenorhabditis elegans, UniProt Q9XUB2)
Sequence (Q9XUB2 whole entry): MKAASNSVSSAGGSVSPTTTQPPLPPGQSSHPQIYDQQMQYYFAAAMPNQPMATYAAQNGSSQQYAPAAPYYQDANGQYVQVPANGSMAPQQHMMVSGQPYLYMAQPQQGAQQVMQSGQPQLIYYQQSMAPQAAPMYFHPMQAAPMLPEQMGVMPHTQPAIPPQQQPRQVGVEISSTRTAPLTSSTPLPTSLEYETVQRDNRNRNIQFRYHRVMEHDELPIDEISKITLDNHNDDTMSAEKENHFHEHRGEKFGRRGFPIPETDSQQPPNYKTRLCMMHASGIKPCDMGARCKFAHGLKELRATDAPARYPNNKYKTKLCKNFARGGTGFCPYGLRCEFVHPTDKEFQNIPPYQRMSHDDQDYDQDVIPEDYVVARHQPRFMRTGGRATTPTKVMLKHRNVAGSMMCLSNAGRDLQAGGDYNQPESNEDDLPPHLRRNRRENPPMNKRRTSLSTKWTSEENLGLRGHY
Assay: MEX-5/TCR-2 RNA interaction inhibitors, dose response, biochemical, C. elegans, fluorescence polarization (AID 1960)
# EC50 listing for each entry below

{"COMPOUND": "COC(=O)c1c(NC(=O)CC2Nc3ccccc3NC2=O)sc(C)c1C (stereo not drawn)", "EC50": "> 300 µM (inconclusive)"}
{"COMPOUND": "COc1cc(OC)c(C2C(C#N)=C(N)OC3=C2C(=O)CC(C)C3)cc1OC (stereo not drawn)", "EC50": "> 300 µM (not active)"}

// below: EC50 requested for another compound
## Input Could you share which EC50 value was measured for `Cc1ccc(/C=C/C(=O)O)cc1S(=O)(=O)N1CCCCC1` ?
## Output > 300 µM (not active)
